Molecular target: Glycogen synthase kinase-3 beta (Homo sapiens)
Details: Compound concentration 20.0 uM, Protein concentration 2.0 uM, Result type QC Liability
Description: Thermal Shift Assay. Domain: start/stop: M26-R383
experimental-readout: ΔTm (°C)

[[record]]
sample_smiles = "O=C(NC[C@@H]1[C@H]2CN(C(=O)OCc3cc(C(F)(F)F)cc(C(F)(F)F)c3)C[C@@H]12)c1ccc2[nH]nnc2c1"
units_label = "°C"
reading = -10.5

[[record]]
sample_smiles = "COc1cc(C(=O)O)ncc1C#Cc1ccccc1NS(=O)(=O)c1cccc2c(N(C)C)ccnc12"
units_label = "°C"
reading = -0.76

[[record]]
sample_smiles = "C[C@H](CCC(=O)O)[C@H]1CC[C@H]2[C@@H]3[C@H](O)C[C@@H]4C[C@H](O)CC[C@]4(C)[C@H]3C[C@H](O)[C@]12C"
units_label = "°C"
reading = -0.66

[[record]]
sample_smiles = "CC(C)(C)C(=O)NCc1ccc(Cl)c(C(=O)Nc2ncc[nH]2)c1"
units_label = "°C"
reading = 0.45


* * *

Target: Mitogen-activated protein kinase 1 (Homo sapiens)
Conditions: Compound concentration 20.0 uM, Protein concentration 2.0 uM, Result type QC Liability
Description: Thermal Shift Assay. Domain: start/stop: M1-S360
experimental-readout: ΔTm (°C)

[[record]]
sample_smiles = "COc1c(NC(=O)c2cc3cccc(Oc4ccnc(C(=O)N5CCN(C)CC5)c4)c3n2C)cc(C(C)(C)C)cc1NS(C)(=O)=O"
experimental_readout = "ΔTm"
reading = 0.86

[[record]]
sample_smiles = "Cc1cc2c(-c3ccco3)cnc(N[C@@H]3CCN(C)C[C@H]3C(=O)NC3CCCCC3)c2[nH]c1=O"
experimental_readout = "ΔTm"
reading = 0.54

[[record]]
sample_smiles = "C[C@@H]1CN(CC(=O)N2CC(C)(C)c3nc(CO)c(Cc4ccc(F)cc4)cc32)[C@@H](CN2CCOC[C@H]2C)CN1"
experimental_readout = "ΔTm"
reading = 0.01

[[record]]
sample_smiles = "CP(C)(=O)c1ccc(CNC(=O)C2CCN(S(=O)(=O)c3cc(Cl)cc(Cl)c3)CC2)cc1"
experimental_readout = "ΔTm"
reading = 0.45

[[record]]
sample_smiles = "CN1CCN(C(=O)c2ccc(N(C)c3ncc(C(F)(F)F)c(N[C@@H]4CCC[C@@H]4C(N)=O)n3)cc2)CC1"
experimental_readout = "ΔTm"
reading = 0.25

[[record]]
sample_smiles = "COc1cccc(Cn2cc(C(=O)Nc3ccc(C)c(S(=O)(=O)N4CCOCC4)c3)c(-c3ccc(C)cc3)n2)c1"
experimental_readout = "ΔTm"
reading = -3.66

[[record]]
sample_smiles = "CCCc1c(OCCCOc2ccc(OCC(=O)O)cc2)ccc(C(C)=O)c1O"
experimental_readout = "ΔTm"
reading = -0.16

[[record]]
sample_smiles = "O=C(O)c1ccc(CN2C[C@@H]3C[C@H]2CN3Cc2ccc(Oc3ccc(-c4ncco4)cc3)cc2)cc1"
experimental_readout = "ΔTm"
reading = 0.14


* * *

Biological target: Casein kinase I isoform delta (Homo sapiens) (UniProt P48730)
Sequence (P48730 whole entry, looked up, canonical isoform): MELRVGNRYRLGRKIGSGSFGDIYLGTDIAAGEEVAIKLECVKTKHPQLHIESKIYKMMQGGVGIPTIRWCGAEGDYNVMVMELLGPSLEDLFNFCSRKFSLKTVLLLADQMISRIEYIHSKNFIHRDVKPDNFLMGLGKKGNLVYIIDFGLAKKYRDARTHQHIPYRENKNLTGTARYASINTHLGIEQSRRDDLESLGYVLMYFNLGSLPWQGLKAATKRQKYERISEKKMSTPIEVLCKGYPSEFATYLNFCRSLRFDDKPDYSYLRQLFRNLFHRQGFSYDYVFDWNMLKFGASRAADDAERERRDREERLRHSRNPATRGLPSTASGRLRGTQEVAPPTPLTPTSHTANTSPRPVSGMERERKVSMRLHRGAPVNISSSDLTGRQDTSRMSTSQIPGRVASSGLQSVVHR
Details: Compound concentration 20.0 uM, Protein concentration 2.0 uM, Result type QC Liability
Description: Thermal Shift Assay. Domain: start/stop: M1-K294
experimental-readout: ΔTm (°C)

[[record]]
compound = "CNC(=O)COc1cc2cc(Nc3nc(N4CCC(C(=O)N(C)C)CC4)ncc3Cl)cc(OC)c2n(C)c1=O"
units_label = "°C"
reading = 0.17

[[record]]
compound = "Cc1cc(C2CCCNC2)ccc1Nc1ncc(Br)c(NCc2cccc3c2C(C)(C)C(=O)N3)n1 (centres undefined)"
units_label = "°C"
reading = 0.34

[[record]]
compound = "C[C@@H]1CC(=O)N(C2CC2)N=C1c1ccc(NC(=O)N2Cc3ccncc3C2)cc1"
units_label = "°C"
reading = 0.2

[[record]]
compound = "COc1c(OCCCN2CCOCC2)ccc2c1N=C(NC(=O)c1cnc(N)nc1)N1CCN=C21"
units_label = "°C"
reading = 0.2

[[record]]
compound = "Cc1cc2c(-c3ccco3)cnc(N[C@H]3CCN(C)C[C@@H]3C(=O)NC3CCCCC3)c2[nH]c1=O"
units_label = "°C"
reading = 0.37

[[record]]
compound = "COc1cccc(Cn2cc(C(=O)Nc3ccc(C)c(S(=O)(=O)N4CCOCC4)c3)c(-c3ccc(C)cc3)n2)c1"
units_label = "°C"
reading = -0.33

[[record]]
compound = "CCN1C(=O)/C(=C(\\NC2CCN(C)CC2)c2ccc3c(c2)OCO3)c2cc(C(C)=O)ccc21"
units_label = "°C"
reading = 1.8

[[record]]
compound = "N#CN1CC[C@H](C(=O)Nc2nc3c(s2)CN(C(=O)CN=[N+]=[N-])CC3)C1"
units_label = "°C"
reading = 0.24

[[record]]
compound = "CC(C)C[C@H](NC(=O)[C@@H](O)[C@H](N)Cc1ccccc1)C(=O)O"
units_label = "°C"
reading = 0.13

